Where do the numbers come from? From patent EP0114128A1.

System: Escherichia Coli 1894
experiment: In vitro activity, dilution method in liquid medium (MIC)
Type: cell-based
condition_description: COLI1894, 24 H incubation at 37°C, read-out: concentrations minimales inhibitrices (C. M. I.)
Text: Etude pharmacologiaue des produits de l'invention. Activité in vitro, méthode des dilutions en milieu liquide. On prépare une série de tubes dans lesquels on répartit une même quantité de milieu nutritif stérile. On distribue dans chaque tube des quantités croissantes du produit à étudier, puis chaque tube est ensemencé avec une souche bactérienne. […]
# MIC per record follows

CO/N=C(\C(=O)N[C@H]1CN(c2nn[nH]n2)C1=O)c1csc(N)n1 [Prod. ex.3] = 0.15 µg/mL
C[C@@H]1[C@H](NC(=O)/C(=N\OCC(=O)O)c2csc(N)n2)C(=O)N1c1nn[nH]n1 (racemic) [Prod. ex. 6] = 0.6 µg/mL
C[C@@H]1[C@H](NC(=O)/C(=N\OC(C)(C)C(=O)O)c2csc(N)n2)C(=O)N1c1nn[nH]n1 (racemic) [Prod. ex.7] = 0.6 µg/mL
CO/N=C(\C(=O)N[C@@H]1C(=O)N(c2nn[nH]n2)[C@@H]1C)c1csc(N)n1 (racemic) [Prod. ex. 1] = 0.08 µg/mL
CO/N=C(\C(=O)N[C@@H]1C(=O)N(c2nn[nH]n2)[C@H]1C)c1csc(N)n1 (racemic) [Prod. ex. 2] = 0.3 µg/mL
C[C@@H]1[C@H](NC(=O)/C(=N\OC(F)F)c2csc(N)n2)C(=O)N1c1nn[nH]n1 (racemic) [Prod. ex. 4] = ≤ 0.04 µg/mL

Would you kindly look at the next entry?
Consider the compound CO/N=C(\C(=O)N[C@@H]1C(=O)N(c2nn[nH]n2)[C@@H]1CF)c1csc(N)n1 (racemic) [Prod. ex. 11] and give its measured MIC.
≤ 0.04 µg/mL
